meta.source: patent US20180037631A1

- ASSAYED SYSTEM: EGFR on the surface of human tumour cells (A431, H292) (human, UniProt P00533 25-1210)
- TEST PROTOCOL: cell-based or functional assay
Entries annotated with measured A431 pERK IC50 (In-Cell Western)
Quick reminder: number only, in nM, skip the unit.

Check out these entries, answers already filled in.
BINDER	OBSERVED PROPERTY	NUMBER
E1-GS10-I1 pegylated, His-tagged (designed binder, 40 kDa branched PEG on the Cys of the C-terminal Cys tail, also called E1-GS10-I1 (with PEG)) MGVSDVPRDLEVVAATPTSLLISWVAGAEDYQYYRITYGETGGNSPVQEFTVPHDLVTATISGLKPGVDYTITVYAVTDMMHVEYTEHPISINYRTEIDKGSGSGSGSGSGSGSGSGSGSVSDVPRDLEVVAATPTSLLISWSARLKVARYYRITYGETGGNSPVQEFTVPKNVYTATISGLKPGVDYTITVYAVTRFRDYQPISINYRTEIDKPCQHHHHHH	A431 pERK IC50 (In-Cell Western)	295
E3-GS10-I1, non-pegylated (designed binder) VSDVPRDLEVVAATPTSLLISWLPGKLRYQYYRITYGETGGNSPVQEFTVPHDLRTATISGLKPGVDYTITVYAVTNMMHVEYSEYPISINYRTEIDKGSGSGSGSGSGSGSGSGSGSVSDVPRDLEVVAATPTSLLISWSARLKVARYYRITYGETGGNSPVQEFTVPKNVYTATISGLKPGVDYTITVYAVTRFRDYQPISINYRTEIDKPSQ	A431 pERK IC50 (In-Cell Western)	12
E1-GS10-I1, His-tagged, non-pegylated (designed binder, bispecific EGFR/IGF-IR tandem of two 10Fn3 domains) MGVSDVPRDLEVVAATPTSLLISWVAGAEDYQYYRITYGETGGNSPVQEFTVPHDLVTATISGLKPGVDYTITVYAVTDMMHVEYTEHPISINYRTEIDKGSGSGSGSGSGSGSGSGSGSVSDVPRDLEVVAATPTSLLISWSARLKVARYYRITYGETGGNSPVQEFTVPKNVYTATISGLKPGVDYTITVYAVTRFRDYQPISINYRTEIDKPSQHHHHHH	A431 pERK IC50 (In-Cell Western)	51

Now for the binder whose A431 pERK IC50 (In-Cell Western) we want.
Query: For the binder E3-GS10-I1 pegylated, His-tagged (designed binder, 40 kDa branched PEG on the Cys of the C-terminal Cys tail, also called E3-GS10-I1-Cys (with his)) MGVSDVPRDLEVVAATPTSLLISWLPGKLRYQYYRITYGETGGNSPVQEFTVPHDLRTATISGLKPGVDYTITVYAVTNMMHVEYSEYPISINYRTEIDKGSGSGSGSGSGSGSGSGSGSVSDVPRDLEVVAATPTSLLISWSARLKVARYYRITYGETGGNSPVQEFTVPKNVYTATISGLKPGVDYTITVYAVTRFRDYQPISINYRTEIDKPCQHHHHHH , give its measured A431 pERK IC50 (In-Cell Western) value.
Response: 40
